Biological target: hFASN enzyme (full length) (Homo sapiens, UniProt P49327)
Construct: 10 μL hFASN enzyme (full length, 300 ng, purified in house); made in house
Sequence (P49327 whole entry): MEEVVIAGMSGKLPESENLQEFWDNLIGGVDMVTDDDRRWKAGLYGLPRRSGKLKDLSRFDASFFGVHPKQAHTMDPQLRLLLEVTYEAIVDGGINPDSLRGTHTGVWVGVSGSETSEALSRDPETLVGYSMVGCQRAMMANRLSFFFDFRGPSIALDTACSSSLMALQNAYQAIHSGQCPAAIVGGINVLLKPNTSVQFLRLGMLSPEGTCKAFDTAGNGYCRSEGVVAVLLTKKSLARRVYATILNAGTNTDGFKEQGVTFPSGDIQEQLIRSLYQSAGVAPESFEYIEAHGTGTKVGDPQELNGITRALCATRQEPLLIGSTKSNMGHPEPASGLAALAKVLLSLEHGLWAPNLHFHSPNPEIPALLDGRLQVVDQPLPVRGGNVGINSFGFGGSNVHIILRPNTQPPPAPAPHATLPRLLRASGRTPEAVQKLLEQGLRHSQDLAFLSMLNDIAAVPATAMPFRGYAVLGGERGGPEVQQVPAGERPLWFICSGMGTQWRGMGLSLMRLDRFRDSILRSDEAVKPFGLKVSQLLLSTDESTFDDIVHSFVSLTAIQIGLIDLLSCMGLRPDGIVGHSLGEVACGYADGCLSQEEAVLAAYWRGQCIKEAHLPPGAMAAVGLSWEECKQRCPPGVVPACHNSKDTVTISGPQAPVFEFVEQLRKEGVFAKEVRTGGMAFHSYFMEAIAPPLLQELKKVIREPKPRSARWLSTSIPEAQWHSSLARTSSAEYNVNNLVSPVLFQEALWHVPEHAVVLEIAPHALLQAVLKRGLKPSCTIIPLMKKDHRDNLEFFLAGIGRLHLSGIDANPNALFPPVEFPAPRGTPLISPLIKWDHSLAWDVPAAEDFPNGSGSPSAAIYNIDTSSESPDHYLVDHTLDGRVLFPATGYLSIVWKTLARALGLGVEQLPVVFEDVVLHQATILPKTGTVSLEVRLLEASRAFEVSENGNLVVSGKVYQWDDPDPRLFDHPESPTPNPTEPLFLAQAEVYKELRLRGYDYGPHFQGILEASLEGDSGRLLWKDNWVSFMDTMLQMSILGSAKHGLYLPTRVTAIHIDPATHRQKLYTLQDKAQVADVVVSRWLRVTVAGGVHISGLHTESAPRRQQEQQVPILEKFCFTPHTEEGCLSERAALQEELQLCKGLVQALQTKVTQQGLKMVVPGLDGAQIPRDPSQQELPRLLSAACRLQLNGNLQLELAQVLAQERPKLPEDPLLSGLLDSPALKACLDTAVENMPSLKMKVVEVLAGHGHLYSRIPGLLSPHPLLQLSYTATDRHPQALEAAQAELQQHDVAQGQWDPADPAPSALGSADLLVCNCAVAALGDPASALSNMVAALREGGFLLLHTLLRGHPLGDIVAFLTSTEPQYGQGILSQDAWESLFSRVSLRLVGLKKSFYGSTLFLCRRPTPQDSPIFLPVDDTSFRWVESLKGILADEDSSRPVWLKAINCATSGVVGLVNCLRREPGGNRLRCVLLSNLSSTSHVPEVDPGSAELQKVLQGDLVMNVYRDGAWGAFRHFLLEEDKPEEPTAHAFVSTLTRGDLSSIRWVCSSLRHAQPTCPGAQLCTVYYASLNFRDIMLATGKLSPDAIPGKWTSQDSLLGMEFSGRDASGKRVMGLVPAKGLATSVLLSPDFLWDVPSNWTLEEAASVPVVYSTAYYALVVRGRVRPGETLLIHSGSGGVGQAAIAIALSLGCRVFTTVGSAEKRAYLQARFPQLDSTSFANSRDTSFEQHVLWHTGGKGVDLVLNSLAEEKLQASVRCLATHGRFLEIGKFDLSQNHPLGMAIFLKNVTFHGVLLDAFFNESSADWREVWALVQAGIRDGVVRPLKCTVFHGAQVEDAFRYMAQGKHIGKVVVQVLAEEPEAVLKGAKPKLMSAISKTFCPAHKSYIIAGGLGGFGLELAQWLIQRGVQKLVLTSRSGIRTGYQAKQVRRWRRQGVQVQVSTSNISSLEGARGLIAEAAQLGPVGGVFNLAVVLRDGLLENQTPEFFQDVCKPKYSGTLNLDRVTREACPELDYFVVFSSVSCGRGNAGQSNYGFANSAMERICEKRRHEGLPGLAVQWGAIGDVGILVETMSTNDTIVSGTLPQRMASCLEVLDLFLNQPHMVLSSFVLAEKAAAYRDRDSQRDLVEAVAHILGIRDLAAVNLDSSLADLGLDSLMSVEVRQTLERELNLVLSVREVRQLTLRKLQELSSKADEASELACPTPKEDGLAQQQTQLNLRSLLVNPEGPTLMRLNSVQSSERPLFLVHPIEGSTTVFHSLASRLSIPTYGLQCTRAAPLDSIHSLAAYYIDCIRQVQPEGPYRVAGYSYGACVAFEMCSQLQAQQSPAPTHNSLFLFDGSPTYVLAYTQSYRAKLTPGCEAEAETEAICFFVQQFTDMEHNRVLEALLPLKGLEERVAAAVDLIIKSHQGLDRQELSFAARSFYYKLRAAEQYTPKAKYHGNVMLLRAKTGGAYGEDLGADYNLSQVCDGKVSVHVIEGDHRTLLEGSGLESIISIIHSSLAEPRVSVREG
Assay: Fatty Acid Synthase (FASN) Inhibition Scintillation Proximity Assay
Type: biochemical
Settings: read-out: FASN % Effect @1E−05M
endpoint name: inhibition at 10 µM (%)

The cases that follow already have their inhibition at 10 µM on record.
>>> df
                                   compound                               measured_on  reported_result
0  COc1ccc(C(=O)Nc2cc(C(=O)N3CC(c4ccc(-c5cnn(C)c5)cc4)C3)ccc2C)cc1  hFASN enzyme (full length) (Homo sapiens, UniProt P49327)              109
1  Cc1ccc(C(=O)N2CCC(c3ccc(-c4cnn(C)c4)cc3)C2)cc1NC(=O)c1ccc(N2CCOCC2)nc1 (stereo not shown)  hFASN enzyme (full length) (Homo sapiens, UniProt P49327)              107
2  CC(C)Nc1ccc(C(=O)Nc2cc(C(=O)N3CCC(c4ccc(-c5cnn(C)c5)cc4)CC3)ccc2N(C)C2CC2)cn1  hFASN enzyme (full length) (Homo sapiens, UniProt P49327)               98

A = COc1ccc(C(=O)N2CCC(c3ccc(-c4cnn(C)c4)cc3)CC2)cc1NC(=O)c1ccc(Cl)nc1
B = Cc1ccc(C(=O)N2CC(c3ccc(-c4cnn(C)c4)cc3)C2)cc1NC(=O)C1CCCC1
query: Lower value of inhibition at 10 µM belongs to which: A or B ? Answer with the label corresponding to your selection.
result: B
